test system: U251 CNS; test: NCI-60 one-dose screen, 48 h; conditions: 10 µM unless noted
The panel holds about 83,000 compounds, 20% with a hit somewhere; the sample as a whole holds those more often. Calls of active or inactive are those of the source. Rule for the calls: active = growth percent below 10; inactive = the rest.
Respond with a class label; see true for active, false for inactive

As a guide, the following entries are already answered.
1. O=C(Nc1ccc(OS(=O)(=O)c2ccc(F)cc2)cc1)c1ccc(Cl)cc1 = false
2. COc1ccn2c(C(C)=O)cc(C(=O)c3ccc4c(c3)Sc3ccccc3N4)c2c1 = false
3. N/C(=N\c1nc2ccccc2s1)NC(=O)Nc1cccc2ccccc12 = false
4. COC(=O)/C=C1\S/C(=N\Nc2ccc([N+](=O)[O-])cc2[N+](=O)[O-])N(C2CCCCC2)C1=O = false
5. Cc1cccc2c1S/C(=C/c1ccc([N+](=O)[O-])cc1)C2=O = false

Query: // return assay outcome for Cc1cc(O)c(C2=NN(c3ccc(S(N)(=O)=O)cc3)C(c3ccccc3O)C2)cc1Cl (stereo unspecified)
Response: true

----------
Reported growth values for the following compounds.
system: IGROV1 ovarian; test: NCI-60 one-dose screen, 48 h (100 = growth as untreated, 0 = no growth, -100 = all killed); conditions: 10 µM unless noted
This is part of a sample that, as a whole, favours compounds with a hit. Of some 83,000 tested, about 20% had one in any assay.
Write the number in % without appending the unit.

Examples with their reported growth follow.
1. CN1CCN(Cc2ccc(NC(=O)c3cncc(C#Cc4cnccc4C#N)c3)cc2C(F)(F)F)CC1 = 67.2
2. Cc1ccc(C(=O)NCCNc2nccc(-c3c(-c4cccc(F)c4)nc4sccn34)n2)cc1 = 23.1
3. CCOC(=O)c1c(C)oc2ncnc(N3CCN(C(=O)COc4ccc(C(C)(C)C)cc4)CC3)c12 = 73.7
4. CNc1nc2c(s1)C(c1cc(F)ccc1F)CC(=O)N2 (stereo not given) = 73.7
5. CCOc1c(B(O)O)cccc1-c1nc2ccc3[nH]ncc3c2c2c1CCCC2 = 77.6

Query: Quick one: growth of `O=C(Nc1c2ccccc2nc2ccccc12)c1ccccc1CN1C(=O)c2ccccc2C1=O` ?
Response: 21.4

Query: Given the entry `COc1ccc(CNC(=O)[C@H](O)[C@@H](N)Cc2ccccc2)cc1` , report its measured growth.
Response: 109

Query: Requested read-out: growth. Entry: `CCc1cccc2c1S/C(=C/c1ccc(OC)cc1)C2=O`
Response: 30.4

Query: Fill in the blank: the reported growth of `CCOC(=O)c1c2c(n(-c3ccc(C#N)cc3)c1-c1ccccc1)C=CCC2` is ____.
Response: 77.9

Query: Could you share which growth value was measured for `O=C(Nn1c(NCC(=O)N2c3ccccc3Sc3ccccc32)nnc1-c1ccc(O)cc1)c1ccccc1` ?
Response: 102

----------
tested on: SK-MEL-28 melanoma; test: NCI-60 one-dose screen, 48 h (100 = growth as untreated, 0 = no growth, -100 = all killed); details: 10 µM unless noted
Compounds without any hit were thinned out: in the full panel of roughly 83,000, 20% have a hit. Calls of active or inactive are those of the source. How the source made its calls: active means growth percent below 10; inactive means the rest.
READOUT: growth

1) CCCCCCNC(=O)Oc1ccc(/C(=C(\C)c2ccc(OC)cc2)c2ccc(OCCN3CCCCC3)cc2)cc1 = 25.2% (inactive)
2) C/C=C(\C)C(=O)N[C@H]1[C@@H](OC(C)=O)C[C@]2(C)C3CC[C@@]4(C)C(CC[C@@H]4C(C)N(C)C)C3CCC2[C@H]1O (some centres undefined) = -35.8% (active)
3) Cc1ccc(/C=N\NC(=O)c2[nH]c3ccc(F)cc3c2-c2ccccc2)cc1 = 71.5% (inactive)
4) CCN(CC)CCCNc1nc2ccccc2c2c(=O)c3cc(Cl)ccc3sc12 = 84.3% (inactive)
5) CCOC(=O)C1=C(N)Oc2c(sc3c(C)cccc23)C1c1ccc(F)cc1 (centres undefined) = 56.8% (inactive)
6) O=C1c2ccccc2NC(n2sc3ccccc3c2=O)N1c1ccccc1 (centres undefined) = 116% (inactive)
7) NC1=C(c2nn[nH]n2)C(c2ccccc2Cl)c2ccc3ccccc3c2O1 (centres undefined) = 75.6% (inactive)
8) COc1cc(C2CC(c3ccc(N(C)C)cc3)=NN2C(C)=O)cc(OC)c1OC (centres undefined) = 52.2% (inactive)

Next molecule, growth to be filled in.
Query: Item C=CCc1cc(C)ccc1NC(C(=O)NCC(=O)OC)c1ccccc1 (centres undefined) has what recorded growth?
Response: 101% (inactive)

All figures here come from PubChem BioAssay (NCI).
